- PROTOCOL_CONDITIONS: to cellulose
ENDPOINT_NAME: Sensitivity

Worked examples, 6 compounds total:
COMPOUND: Cl.Cl.NCCc1cc(-c2cccs2)sc1-c1ccc(-c2sc(-c3cccs3)cc2CCN)s1 [pHTEA, penta Hydrogen Thiophene Ethanol Amine]
Sensitivity: Yes
--
COMPOUND: Cl.Cl.c1csc(-c2cc(CCn3ccnc3)c(-c3ccc(-c4sc(-c5cccs5)cc4CCn4ccnc4)s3)s2)c1 [pHTIm, penta Hydrogen Thiophene Imidazole]
Sensitivity: Yes
--
COMPOUND: Cl.Cl.N=C(N)NCCC[C@H](NC(=O)Cc1cc(-c2cccs2)sc1-c1ccc(-c2sc(-c3cccs3)cc2CC(=O)N[C@@H](CCCNC(=N)N)C(=O)O)s1)C(=O)O
Sensitivity: Yes
--
COMPOUND: O=C(Cc1cc(-c2cccs2)sc1-c1ccc(-c2sc(-c3cccs3)cc2CC(=O)N[C@@H](Cc2ccc([O-])cc2)C(=O)[O-])s1)N[C@@H](Cc1ccc([O-])cc1)C(=O)[O-].[Na+].[Na+].[Na+].[Na+]
Sensitivity: No
--
COMPOUND: O=C([O-])C[C@H](NC(=O)Cc1cc(-c2cccs2)sc1-c1ccc(-c2sc(-c3cccs3)cc2CC(=O)N[C@@H](CC(=O)[O-])C(=O)[O-])s1)C(=O)[O-].[Na+].[Na+].[Na+].[Na+]
Sensitivity: No
--
COMPOUND: Cl.Cl.O=C(Cc1cc(-c2cccs2)sc1-c1ccc(-c2sc(-c3cccs3)cc2CC(=O)NCCc2c[nH]cn2)s1)NCCc1c[nH]cn1
Sensitivity: Yes

The following compounds each have a reported value; give each one's Sensitivity.
1. NCCCC[C@H](NC(=O)Cc1cc(-c2cccs2)sc1-c1ccc(-c2sc(-c3cccs3)cc2CC(=O)N[C@@H](CCCCN)C(=O)[O-])s1)C(=O)[O-].[Na+].[Na+]
2. O=C([O-])CC[C@H](NC(=O)Cc1cc(-c2cccs2)sc1-c1ccc(-c2sc(-c3cccs3)cc2CC(=O)N[C@@H](CCC(=O)[O-])C(=O)[O-])s1)C(=O)[O-].[Na+].[Na+].[Na+].[Na+]

Ans:
1. Yes
2. No
